Biological target: Retinoic acid receptor RXR-alpha (Homo sapiens) (UniProt P19793)
Sequence (P19793 whole entry, looked up): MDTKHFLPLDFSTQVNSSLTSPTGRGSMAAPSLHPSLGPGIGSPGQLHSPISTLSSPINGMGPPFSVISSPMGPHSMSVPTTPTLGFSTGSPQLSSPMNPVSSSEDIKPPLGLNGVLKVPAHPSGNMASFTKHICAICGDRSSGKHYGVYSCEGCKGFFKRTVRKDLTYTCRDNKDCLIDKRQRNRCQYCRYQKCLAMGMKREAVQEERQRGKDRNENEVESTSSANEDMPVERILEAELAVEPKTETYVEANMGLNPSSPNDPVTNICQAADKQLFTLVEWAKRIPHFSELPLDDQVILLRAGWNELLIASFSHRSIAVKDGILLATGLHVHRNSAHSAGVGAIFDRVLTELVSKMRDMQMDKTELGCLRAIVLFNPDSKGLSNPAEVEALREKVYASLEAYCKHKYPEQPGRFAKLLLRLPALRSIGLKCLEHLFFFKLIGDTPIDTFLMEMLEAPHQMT
Test: qHTS assay to identify small molecule agonists of the RXR signaling pathway (AID 1159527); also: nearly all actives have a fitted effect of over 35% in size
Conditions: HEK293T RXRa-UAS-bla, beta-lactamase ratio, 16 h; series mostly up to 76.8 µM
Records with an inconclusive call do not appear. Active and inactive are the calls of the source. Calls follow the shape of the full dose curve.
measuredEndpoint: outcome

* Cn1cnc2c1c(=O)[nH]c(=O)n2C | inactive
* C[C@]12CC[C@@H]3c4ccc(O)cc4CC[C@H]3[C@@H]1CCC2=O | inactive
* CC1=NN(c2ccccc2)C(=O)C1 | inactive
* CCCCC/C(C=O)=C\c1ccccc1 | inactive
* N[C@@H](Cc1c[nH]c2ccc(O)cc12)C(=O)O | inactive
* CCN1CCCC1=O | inactive
* CCn1cc(C(=O)O)c(=O)c2ccc(C)nc21 | inactive
